Molecular target: MASP-2 CCP2-SP (Homo sapiens (Human), UniProt O00187)
Sequence (O00187 445-686): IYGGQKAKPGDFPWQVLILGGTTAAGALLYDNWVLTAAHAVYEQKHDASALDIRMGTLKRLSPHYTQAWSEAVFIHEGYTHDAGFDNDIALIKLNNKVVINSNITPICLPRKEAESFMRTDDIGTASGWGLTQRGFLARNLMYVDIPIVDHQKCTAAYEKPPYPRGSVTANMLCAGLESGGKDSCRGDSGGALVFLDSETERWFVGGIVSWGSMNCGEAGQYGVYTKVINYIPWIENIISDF
Sequence (O00187 364-432 partner): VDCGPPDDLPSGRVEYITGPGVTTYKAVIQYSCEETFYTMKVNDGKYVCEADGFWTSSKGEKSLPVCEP
Test: MASP-2 co-crystallization, X-ray crystallography and structure analysis (H-bonds, van der Waals contacts);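 further: distance from averaged pharmacophore element to bound ligand; missing value means element absent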
Settings: Table A4-1; element C6
Counter-ions that a name gives are not always drawn.
measured endpoint: Ligand-pharmacophore element distance, pharmacophore element C6

compound	experimental value
Cc1nc(N)ccc1CNC(=O)[C@H](C)NC(=O)[C@H]1C[C@H](Cc2ccccc2Br)CN1.O=C(O)C(F)(F)F.O=C(O)C(F)(F)F [1372_B]	1.46
C[C@H](NC(=O)[C@H]1C[C@H](Cc2ccccc2)CN1)C(=O)NCc1ccc(C(=N)N)cc1.Cl.Cl [1306_1]	0
O=c1oc(-c2ccccc2[N+](=O)[O-])nc2ccccc12 [compound 14]	0
Cc1nc(N)ccc1CNC(=O)[C@H](C)NC(=O)[C@H]1C[C@H](Cc2cc(Cl)cc(Cl)c2)CN1 [compound 1435, Dihydrochloride]	0.38
C[C@H](NC(=O)[C@H]1C[C@@H](c2ccccc2)CCN1)C(=O)NCc1cc(Cl)ccc1O.Cl [1078_15]	0
Cc1nc(N)ccc1CNC(=O)[C@H](C)NC(=O)c1cc(Cc2ccccc2)n[nH]1 [compound 1367]	0
C[C@H](NC(=O)[C@H]1C[C@@H](c2ccccc2)CCN1)C(=O)NCc1cc(Cl)ccc1O.Cl [1078_2]	0
